reported_property: melting point

Consider the worked cases shown below.
{"smiles_entry": "O=C(COc1ccc(Oc2ccccc2)cc1)NCC(=O)Nc1c(F)cccc1F", "melting point": "164 to 165 °C"}
{"smiles_entry": "O=C(/C=C/c1ccc(Cl)cc1)NC(=S)NNC(=O)Cc1cccs1", "melting point": "232 to 233 °C"}
{"smiles_entry": "COc1cccc(OC)c1/C=C/C(=O)NC(=S)NNC(=O)c1cccs1", "melting point": "209 to 210 °C"}

Enquiry: Which value of melting point has been reported for "O=C(COc1ccc(Br)cc1)NCC(=O)Nc1cccc(Cl)c1" in the records?
Return: 205 to 206 °C

Enquiry: Also "O=C(COc1ccc(F)cc1)NCC(=O)Nc1ccc(Br)cc1" ?
Return: 192 to 193 °C

---

Measured melting point accompanies every entry in the list below.

Consider the worked cases shown below.
{"smiles_entry": "O=C(/C=C/c1ccc(-c2ccccc2)cc1)NC(=S)NNC(=O)Cc1cccs1", "melting point": "231 to 232 °C"}
{"smiles_entry": "Cc1ccc(S(=O)(=O)NCC(=O)Nc2c(F)cccc2F)cc1", "melting point": "129 to 130 °C"}
{"smiles_entry": "O=C(COc1ccc(Br)cc1)NCC(=O)Nc1ccc(F)cc1", "melting point": "213 to 214 °C"}
{"smiles_entry": "COc1ccc(OCC(=O)NCC(=O)Nc2cccc(Br)c2)cc1", "melting point": "174 to 175 °C"}

API: the following record is the query input.
Enquiry: Which value of melting point has been reported for "O=C(CNC(=O)COc1ccc(Br)cc1)NCc1ccccc1" in the records?
Return: 195 to 196 °C

---

Measured melting point accompanies every entry in the list below.

{"molecule": "O=C(/C=C/c1ccc(F)cc1)NC(=S)NNC(=O)Cc1ccccc1 [LW-12]", "melting point": "212 to 213 °C"}
{"molecule": "O=C(COc1ccc(Cl)cc1)NCC(=O)Nc1ccc(I)cc1 [MM-4]", "melting point": "205 to 206 °C"}

Enquiry: Which value of melting point has been reported for O=C(Cc1ccc(F)cc1)NNC(=S)NC(=O)CC1CCCCC1 [LW-34] in the records?
Return: 132 to 133 °C

Each recorded value in this set is attributed to patent US9216954B2.
